biological target: Human ATX (Homo sapiens (Human), UniProt Q13822); assay: Assay A: Biochemical ATX Assay; conditions: 5 nM recombinant ATX, 18:1 LPC substrate, 2 h at room temperature, formation of 18:1 LPA by RapidFire MS
pIC50: −log10 of the molar value.
measuredQuantity: pIC50

>  <compound>
CC(=O)N1CC[C@@H]2CN(c3ccc(CNc4ccc(OCc5ccc(C(F)(F)F)nc5)nn4)cc3)C[C@@H]2CC1

>  <pIC50>
8.07

$$$$
>  <compound>
CC(=O)N[C@H]1[C@@H]2CN(c3ccc(CNc4ccc(OCc5ccc(C(F)(F)F)nc5)nn4)cc3)C[C@@H]21

>  <pIC50>
8.42

$$$$
>  <compound>
CC(=O)N1CCN(c2ccc(CNc3ccc(OCc4ccc(C(F)F)nc4)nn3)cc2)CC1(C)C

>  <pIC50>
8.80

$$$$
>  <compound>
CC(=O)N1CCN(c2ccc(CNc3ccc(OCc4ccc(C(F)F)nc4)nn3)cc2F)CC1

>  <pIC50>
8.82

$$$$
>  <compound>
CC(=O)N1CCN(c2ccc(CNc3ccc(OCc4ccc(C(F)F)nc4)nn3)cc2)CC1

>  <pIC50>
8.54

$$$$
>  <compound>
CC(=O)N1CC2(C1)CN(c1ccc(CNc3ccc(OCc4ccc(C(F)F)nc4)nn3)cc1)C2

>  <pIC50>
8.54

$$$$
>  <compound>
CC(=O)N1CC2(C1)CN(c1ccc(CNc3ccc(OCc4ccc(C(F)(F)F)nc4)nn3)cc1)C2

>  <pIC50>
8.47

$$$$
>  <compound>
CC(=O)N1CC2(C1)CN(c1ccc(CNc3ccc(OCc4ccc(C(F)(F)F)nc4)nn3)c(F)c1)C2

>  <pIC50>
8.62

$$$$
>  <compound>
CC(=O)N1CCC2(CC1)CN(c1ccc(CNc3ccc(OCc4ccc(C(F)F)nc4)nn3)nc1)C2

>  <pIC50>
7.98

$$$$
>  <compound>
CC(=O)N1C[C@@H]2CN(c3ccc(CNc4ccc(OCc5ccc(C(F)F)nc5)nn4)cc3)C[C@@H]2C1

>  <pIC50>
8.36

$$$$

A = CC(=O)N1CCN(c2ccc(CNc3ccc(OCc4ccc(C(F)F)nc4)nn3)nc2)CC1
B = CC(=O)N1CCC2(CC1)CN(c1ccc(CNc3ccc(OCc4ccc(C(F)(F)F)nc4)nn3)cn1)C2
query: Of A and B , whose reported pIC50 is the larger number? To answer, give the label that identifies your chosen option.
result: A
(A: 8.72, B: 8.28)

====

biological target: Human ATX (Homo sapiens (Human)); test: Assay A: Biochemical ATX Assay; conditions: 5 nM recombinant ATX, 18:1 LPC substrate, 2 h at room temperature, formation of 18:1 LPA by RapidFire MS
measuredQuantity: IC50 (nM)

Worked cases, answers included:
>  <querySmiles>
CC(=O)N1CCN(c2ccc(CNc3ccc(OCc4ccc(C(F)F)nc4)nn3)c(F)c2)CC1

>  <unitString>
nM

>  <IC50>
3.3

$$$$
>  <querySmiles>
CC(=O)N1CCC2(CC1)CN(c1ccc(CNc3ccc(OCc4ccc(C(F)F)nc4)nn3)cc1)C2

>  <unitString>
nM

>  <IC50>
6.5

$$$$

a = CC(=O)N1C[C@@H]2[C@H](C1)[C@H]1CN(c3ccc(CNc4ccc(OCc5ccc(C(F)(F)F)nc5)nn4)cc3)C[C@@H]21
b = CC(=O)N1CC2(C1)CN(c1ccc(CNc3ccc(OCc4ccc(C(F)(F)F)nc4)nn3)cc1F)C2
query: Of a and b , whose reported IC50 is the larger number? To answer, give the label that identifies your chosen option.
result: a
(a: 7 nM, b: 3.7 nM)

Values compiled from patent US20260001863A1.
